target: Nuclear receptor coactivator 2 (Homo sapiens) (UniProt Q15596); experiment: SRC2 coactivator transcriptional activity inhibitors, confirmation, cell-based, luminescence, HEK293, triplicate (AID 652008); settings: HEK293 GAL4-SRC2 luciferase reporter, at 8.9 µM;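 note: 0% = DMSO-treated cells and 100% = Gossypol at 36 µM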
Sequence (Q15596 whole entry, looked up, the tested form may be a part): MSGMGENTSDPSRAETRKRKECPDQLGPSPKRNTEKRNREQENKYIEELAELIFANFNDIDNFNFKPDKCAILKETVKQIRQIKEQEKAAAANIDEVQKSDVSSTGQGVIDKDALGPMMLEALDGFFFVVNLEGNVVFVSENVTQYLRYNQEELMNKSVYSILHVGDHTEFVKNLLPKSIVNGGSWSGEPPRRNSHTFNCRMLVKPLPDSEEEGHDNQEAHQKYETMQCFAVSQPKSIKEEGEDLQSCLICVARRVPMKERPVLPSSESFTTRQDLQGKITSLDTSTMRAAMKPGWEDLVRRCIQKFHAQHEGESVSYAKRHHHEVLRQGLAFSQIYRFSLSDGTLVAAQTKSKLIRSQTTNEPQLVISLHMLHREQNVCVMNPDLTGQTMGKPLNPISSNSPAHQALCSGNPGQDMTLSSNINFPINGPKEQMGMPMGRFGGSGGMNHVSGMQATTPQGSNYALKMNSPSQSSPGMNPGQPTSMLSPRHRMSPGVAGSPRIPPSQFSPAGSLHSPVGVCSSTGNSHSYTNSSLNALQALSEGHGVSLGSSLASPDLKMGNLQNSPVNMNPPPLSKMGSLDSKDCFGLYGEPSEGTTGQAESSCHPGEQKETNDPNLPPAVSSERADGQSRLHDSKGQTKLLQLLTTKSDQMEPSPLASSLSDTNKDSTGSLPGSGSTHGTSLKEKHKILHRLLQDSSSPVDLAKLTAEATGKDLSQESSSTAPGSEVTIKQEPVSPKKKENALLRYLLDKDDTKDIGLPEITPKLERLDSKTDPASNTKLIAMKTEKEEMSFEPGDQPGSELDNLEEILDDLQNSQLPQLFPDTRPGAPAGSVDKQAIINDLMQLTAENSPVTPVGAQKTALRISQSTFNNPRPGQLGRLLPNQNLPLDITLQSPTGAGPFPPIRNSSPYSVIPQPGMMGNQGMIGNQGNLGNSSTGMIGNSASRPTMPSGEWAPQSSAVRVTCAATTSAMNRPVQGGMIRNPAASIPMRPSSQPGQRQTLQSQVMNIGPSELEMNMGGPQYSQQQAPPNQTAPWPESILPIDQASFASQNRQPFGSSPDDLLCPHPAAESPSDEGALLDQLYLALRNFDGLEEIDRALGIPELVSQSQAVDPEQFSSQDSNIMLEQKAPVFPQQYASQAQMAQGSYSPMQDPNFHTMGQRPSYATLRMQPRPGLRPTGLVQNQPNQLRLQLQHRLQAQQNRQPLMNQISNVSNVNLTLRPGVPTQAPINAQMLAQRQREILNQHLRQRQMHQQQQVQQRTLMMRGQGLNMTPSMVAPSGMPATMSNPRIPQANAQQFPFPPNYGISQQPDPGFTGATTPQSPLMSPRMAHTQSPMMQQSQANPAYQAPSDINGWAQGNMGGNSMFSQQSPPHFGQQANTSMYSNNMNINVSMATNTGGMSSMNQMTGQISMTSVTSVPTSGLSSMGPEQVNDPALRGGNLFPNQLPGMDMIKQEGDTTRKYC
Calls of active or inactive are those of the source.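 Rule for the calls: active = mean inhibition above 46.5%, the solvent-only control mean plus 3 SD; inactive = the rest.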
// allowed return values: 1.0 for active, 0.0 for inactive

- NNC(=O)c1cc2ccccc2cc1O: 1.0
- COCCn1c(C)cc(C(=O)COc2ccc(C)nc2[N+](=O)[O-])c1C: 1.0
- CCCCC(=O)Nc1ccc(C)c(S(=O)(=O)N2CCCCCC2)c1: 0.0
- CC(=O)N1CCOc2ccc(S(=O)(=O)NCC3CCC(C(=O)Nc4ccc(C)cn4)CC3)cc21 (stereo not given): 0.0
- Cc1nc2cc(-c3ccccc3)nn2c(C)c1CCC(=O)N1CCN(c2ccccc2)CC1: 1.0

-- ask Test call, this compound: Cc1cc(C(=O)CSc2ccc(F)cc2)cc(C)c1OC(=S)N(C)C
-- reply 1.0

-- ask Try Cc1nn(C)c(Cl)c1NC(=O)OCc1ccc(Cl)cc1Cl next.
-- reply 0.0

-- ask What about CCOc1ccc(/C=C/c2c([N+](=O)[O-])c(=O)n(C)c(=O)n2C)cc1 ?
-- reply 0.0

-- ask What do we get for O=C(CN1C(=O)c2ccccc2S1(=O)=O)c1ccccc1Cl ?
-- reply 1.0

-- ask What do we get for Cc1scc(C(=O)N/N=C/c2ccc([N+](=O)[O-])o2)c1C ?
-- reply 1.0

Taken from PubChem BioAssay.
